- Tested on: MDCK-II
- test-description: Apparent permeability from apical to basolateral side of MDCK2 cells over expressing MDR1 after 1 hr
- Format: functional, cell-based
- cond: Canis lupus familiaris
Below, each entry is listed with its recorded permeability.
quantity-name: permeability (×10⁻⁶ cm/s)

[[record]]
smiles_structure = "CN(C)c1ccc(-c2cc(-c3ccc(N)cc3)[se+]c(-c3ccc(N)cc3)c2)cc1.F[P-](F)(F)(F)(F)F"
u = "×10⁻⁶ cm/s"
numeric_result = 0.34

[[record]]
smiles_structure = "CCCc1cc(-c2ccc(N(C)C)cc2)cc(-c2ccc(N(C)C)cc2)[s+]1.[I-]"
u = "×10⁻⁶ cm/s"
numeric_result = 0.15

[[record]]
smiles_structure = "Cc1cc(C)c(-c2cc(-c3ccc(N(C)C)cc3)[te+]c(-c3ccc(N(C)C)cc3)c2)c(C)c1.F[P-](F)(F)(F)(F)F"
u = "×10⁻⁶ cm/s"
numeric_result = 0.85

[[record]]
smiles_structure = "CN(C)c1ccc(-c2cc(-c3ccccc3)[se+]c(-c3ccc(N)cc3)c2)cc1.F[P-](F)(F)(F)(F)F"
u = "×10⁻⁶ cm/s"
numeric_result = 0.35

